Entry source: paper PMC6766931

Target: UniProt P53341
Readout Kind: pKi
Note: pKi values are expressed as the negative base-10 logarithm of concentration in M.

Ask: Report its pKi with UniProt P53341 as the test system: COc1cc(CN2CC(O)C(O)C(O)C2CO)ccc1O (stereo not shown) [Compound 18a]
Result: 3.96

* * *

Target: α-glucosidase (Saccharomyces cerevisiae)
Construct: purchased Sigma-Aldrich
Test: In vitro assay of α-glucosidase inhibitory activity (PNPG, 96-well microplates)
Type: biochemical
Details: substrate PNPG, pH 6.8, 37 °C, read-out: IC50 (mM) ± SEM
Listed here are compounds together with their documented IC50.
Report the figure in mM without appending any unit label.

Here's what some known entries look like.
| Compound | Measurement Unit | IC50 |
| --- | --- | --- |
| COc1c(Br)c(Br)c(CN2C[C@H](O)[C@@H](O)[C@H](O)[C@H]2CO)c(Br)c1OC [Compound 17e] | mM | 9.57 |
| OCC1C(O)C(O)C(O)CN1Cc1cccc(Br)c1 (stereo not drawn) [Compound 12i] | mM | 15.7 |
| COc1cc(CN2CC(O)C(O)C(O)C2CO)cc(Br)c1O (stereo not drawn) [Compound 18b] | mM | 0.276 |

Please look at the following compound next.
Ask: Given the compound COc1cc(CN2CC(O)C(O)C(O)C2CO)c(Br)c(Br)c1OC (stereo not drawn) [Compound 17d] , write its reported IC50.
Result: 1.14

* * *

Target: α-glucosidase (Saccharomyces cerevisiae, UniProt P53341)
Construct: purchased Sigma-Aldrich
Sequence (P53341 whole entry): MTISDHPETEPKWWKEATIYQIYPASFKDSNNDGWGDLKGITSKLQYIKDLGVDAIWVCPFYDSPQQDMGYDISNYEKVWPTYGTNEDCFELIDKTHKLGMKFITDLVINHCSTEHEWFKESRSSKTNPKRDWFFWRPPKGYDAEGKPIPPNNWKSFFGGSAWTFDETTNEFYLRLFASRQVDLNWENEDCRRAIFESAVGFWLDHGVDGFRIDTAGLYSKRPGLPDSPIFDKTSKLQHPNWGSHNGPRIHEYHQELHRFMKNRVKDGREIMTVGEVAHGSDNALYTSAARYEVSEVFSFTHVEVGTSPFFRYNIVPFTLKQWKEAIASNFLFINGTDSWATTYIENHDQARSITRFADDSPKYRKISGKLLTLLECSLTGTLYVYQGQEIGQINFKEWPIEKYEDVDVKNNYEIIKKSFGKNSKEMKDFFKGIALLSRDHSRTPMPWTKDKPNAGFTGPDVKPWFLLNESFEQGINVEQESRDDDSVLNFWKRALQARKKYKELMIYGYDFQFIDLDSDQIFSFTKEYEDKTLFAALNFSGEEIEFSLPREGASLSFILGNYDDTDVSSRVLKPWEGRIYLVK
Assay: In vitro assay of α-glucosidase inhibitory activity (PNPG, 96-well microplates)
Type: biochemical
Conditions: substrate PNPG, pH 6.8, 37 °C, read-out: IC50 (mM) ± SEM
Listed here are molecules together with their documented IC50.

Here's what some known entries look like.
| Molecule | IC50 |
| --- | --- |
| COc1cc(CN2CC(O)C(O)C(O)C2CO)ccc1O (centres unmarked) [Compound 18a] | 0.207 mM |
| OCC1C(O)C(O)C(O)CN1Cc1ccc(I)cc1 (centres unmarked) [Compound 12d] | 9.88 mM |
| OCC1C(O)C(O)C(O)CN1Cc1cccc(I)c1 (centres unmarked) [Compound 12j] | 10.5 mM |
| Cc1cccc(CN2CC(O)C(O)C(O)C2CO)c1 (centres unmarked) [Compound 12k] | 10.3 mM |
| OCC1C(O)C(O)C(O)CN1Cc1cccc(Cl)c1 (centres unmarked) [Compound 12h] | 15.3 mM |
| COc1cccc(CN2CC(O)C(O)C(O)C2CO)c1 (centres unmarked) [Compound 12l] | 1.25 mM |
| OCC1C(O)C(O)C(O)CN1Cc1ccc(Br)cc1 (centres unmarked) [Compound 12c] | 12.6 mM |
| COc1cc(CN2C[C@H](O)[C@@H](O)[C@H](O)[C@H]2CO)cc(Br)c1OCc1ccccc1 [Compound 17b] | 15.7 mM |

Ask: Report its IC50 with α-glucosidase (Saccharomyces cerevisiae, UniProt P53341) as the test system: OCC1C(O)C(O)C(O)CN1Cc1ccc(Cl)cc1 (centres unmarked) [Compound 12b]
Result: 11.2 mM

Ask: Report its IC50 with α-glucosidase (Saccharomyces cerevisiae, UniProt P53341) as the test system: COc1cc(CN2CC(O)C(O)C(O)C2CO)cc(Br)c1OC (centres unmarked) [Compound 17c]
Result: 1.06 mM

* * *

Listed here are compounds together with their documented IC50.
Target: α-glucosidase (Saccharomyces cerevisiae, UniProt P53341)
Construct: purchased Sigma-Aldrich
Assay: In vitro assay of α-glucosidase inhibitory activity (PNPG, 96-well microplates)
Assay type: biochemical
Settings: substrate PNPG, pH 6.8, 37 °C, read-out: IC50 (mM) ± SEM
Report the figure in mM without appending any unit label.

Here's what some known entries look like.
| Compound | Measurement Unit | Reported Value |
| --- | --- | --- |
| COc1ccc(CN2CC(O)C(O)C(O)C2CO)cc1 (stereo not shown) [Compound 12f] | mM | 1.02 |
| Cc1ccc(CN2CC(O)C(O)C(O)C2CO)cc1 (stereo not shown) [Compound 12e] | mM | 8.65 |
| OCC1C(O)C(O)C(O)CN1Cc1cccc(F)c1 (stereo not shown) [Compound 12g] | mM | 10.2 |

Ask: Given the compound OCC1C(O)C(O)C(O)CN1Cc1ccc(F)cc1 (stereo not shown) [Compound 12a] , write its reported IC50.
Result: 9.8
